Where do the numbers come from? From the NIST ThermoML archive (doi:10.1021/je9003178).

- assay comment: activity coefficient (dimensionless); of the first substance listed, at infinite dilution; xn = mol fraction of the nth substance listed
- condition parameters: 343.85 K; Liquid; Chromatography; x1 = 0
reported property: activity coefficient

Give the measured activity coefficient of CCCCCCCCC [nonane] + CCCCCC[N+](C)(C)C.O=S(=O)([N-]S(=O)(=O)C(F)(F)F)C(F)(F)F . 24.6

Give the measured activity coefficient of CCC(C)CC [3-methylpentane] + CCCCCC[N+](C)(C)C.O=S(=O)([N-]S(=O)(=O)C(F)(F)F)C(F)(F)F . 8.09

Give the measured activity coefficient of Cc1cccc(C)c1 [1,3-dimethylbenzene] + CCCCCC[N+](C)(C)C.O=S(=O)([N-]S(=O)(=O)C(F)(F)F)C(F)(F)F . 1.82

Give the measured activity coefficient of CCN(CC)CC [triethylamine] + CCCCCC[N+](C)(C)C.O=S(=O)([N-]S(=O)(=O)C(F)(F)F)C(F)(F)F . 4.83

Give the measured activity coefficient of ClC(Cl)(Cl)Cl [tetrachloromethane] + CCCCCC[N+](C)(C)C.O=S(=O)([N-]S(=O)(=O)C(F)(F)F)C(F)(F)F . 2.39

Give the measured activity coefficient of CC(C)CC(C)(C)C [2,2,4-trimethylpentane] + CCCCCC[N+](C)(C)C.O=S(=O)([N-]S(=O)(=O)C(F)(F)F)C(F)(F)F . 12.1

Give the measured activity coefficient of CC#N [acetonitrile] + CCCCCC[N+](C)(C)C.O=S(=O)([N-]S(=O)(=O)C(F)(F)F)C(F)(F)F . 0.46
